# Measured on: T1, human CD8αα homodimer, recombinant protein (Acro Biosystems) (human, UniProt P01732 22-182)
# T1 construct: also called CD8αα antigen; biotinylated CD8α recombinant protein (CDA-H82E3)
# Protocol description: BLI steady state, whole hIgG1-LALAPA antibody on CD8α-His (Ni-NTA sensor), 30 °C
Record form. Attribute: pKd. Fill in for each entry.
One number for each entry, as −log10 of the molar value.

Bench note: what pKd did CBD1049 (antibody, human IgG1, kappa, L234A L235A, V domains shown, also called h1017-H10/L5 whole antibody hIgG1-LALAPA) VH: QVQLVQSGAEVKKPGASVKVSCKASRYTFTDYNLHWVRQAPGQGLEWIGFIYPYNGGTGYAQKFQGRVTLTVDYSTSTAYMELSSLRSEDTAVYYCARDHRYNEGVSFDYWGQGTLVTVSS VL: EIVLTQSPGTLSLSPGERATLSCRASESVDGFGNSFMNWYQQKPGQAPRLLIYLASNLESGVPARFSGSGSGTDFTLTISRLEPEDFAVYYCQQNNEDPYTFGQGTKVEIKR show?
8.52

Others:
Bench note: what pKd did CBD1047 (antibody, human IgG1, kappa, L234A L235A, V domains shown, also called h1017-H9/L5 whole antibody hIgG1-LALAPA) VH: QVQLVQSGAEVKKPGASVKVSCKASRYTFTDYNLHWVRQAPGQGLEWMGFIYPYNGGTGYAQKFQGRVTLTVDYSTSTAYMELSSLRSEDTAVYYCARDHRYNEGVSFDYWGQGTLVTVSS VL: EIVLTQSPGTLSLSPGERATLSCRASESVDGFGNSFMNWYQQKPGQAPRLLIYLASNLESGVPARFSGSGSGTDFTLTISRLEPEDFAVYYCQQNNEDPYTFGQGTKVEIKR show?
8.57
